Protocol Details: loss of swimming-algae plug formation – whole organism, Chlamydomonas reinhardtii, WT vs cilia-less mutant, absorbance, 96-well, primary screen (AID 463189);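 note: 0% = wild type cc124 cells in DMSO and 100% = ciliumless bld1 mutant cells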
Experimental Context: Chlamydomonas reinhardtii gravitaxis, OD600 absorbance, 2 days; at 10 µM; hits give high values
# inhibition values compiled below
Quantity Name: inhibition (%)

CC(C)NC(C)Cc1ccc(I)cc1 (configuration not stated) ... 22.2
CC(=O)c1c(O)c(C)c(O)c(Cc2c(O)c3c(c(C(=O)/C=C/c4ccccc4)c2O)OC(C)(C)C=C3)c1O ... -7.31
CC(C)Oc1cccnc1N(C)C1CCN(Cc2ccccc2)CC1 ... 54.9
COc1ccc2c(c1)C13CCCCC1C(C2)N(C)CC3 (configuration not stated) ... 6.06
COC1=CC(=O)OC(/C=C/c2ccccc2)C1 (configuration not stated) ... -16.3
NC(=NCCC[C@H](N)C(=O)O)N[N+](=O)[O-] ... 2.94
C=C(C)[C@H]1Cc2c(ccc3c2O[C@@H]2COc4cc(OC)c(OC)cc4[C@@H]2C3=O)O1 ... 4.66
Clc1cccc(N2CCNCC2)c1 ... 1.7
CCOC(=O)c1cc(C)n(CCc2cnc[nH]2)c1C ... -3.61
Cc1o[nH]c(=O)c1CC(N)C(=O)O (configuration not stated) ... 5.41
CCC(COC(=O)c1cc(OC)c(OC)c(OC)c1)(c1ccccc1)N(C)C (configuration not stated) ... -3.48
CCCC(=O)OCC[N+](C)(C)C ... 18.3

* * *

Protocol Details: TLR3 IRF3 reporter activation blockers – cell-based, poly I:C stimulus, luciferase, 10K MLSCN set, primary screen (AID 602277)
Experimental Context: HEK293-TLR3 RL24 IRF3 luciferase reporter, at 10 µM, hits give high values
Rule: inhibition of 10% or more gives Y; anything lower gives N.

O=C(CCCN1CCC2(CC1)C(=O)NCN2c1ccccc1)c1ccc(F)cc1 ... Y
[N-]=[N+]=CC(=O)OC[C@H](N)C(=O)O ... Y
O=C1CC(c2ccccc2)CC(O)=C1C=NCCN1CCN(C(=O)Cc2ccccc2)CC1 (stereo not drawn) ... Y
Nc1ccccc1C(=O)OC1CSC1 ... Y
C=CCn1c(O)c(C=NCCN(C)C)c(=O)[nH]c1=O ... N
O=c1[nH]c2ccccc2n1CCCN1CCC(n2c(=O)[nH]c3cc(Cl)ccc32)CC1 ... Y
O=C(CN1CCN(Cc2cccc(Cl)c2)C1=O)N1CCC2(CC1)OCCO2 ... Y
O=C1OCCC1NC1=NCCC1 (stereo not drawn) ... Y
CC(C)[C@@]1(NC(=O)[C@@H]2C=C3c4cccc5[nH]cc(c45)C[C@H]3N(C)C2)O[C@@]2(O)[C@@H]3CCCN3C(=O)[C@H](Cc3ccccc3)N2C1=O ... Y
OCC12COC3c4ccccc4C(OC1)N32 (stereo not drawn) ... Y
CCCCNC(=O)c1c(N)n(CCCOC)c2nc3ccccc3nc12 ... N
CCOC(=O)C1CCCCC12C(C#N)=C(N)Oc1n[nH]c(C)c12 (stereo not drawn) ... Y
Cn1c(O)c(C=NCc2ccco2)c(=O)n(C)c1=O ... Y
NC(=O)OCCSc1nnc(-c2cccc(C(N)=S)c2)o1 ... Y
CCOC(=O)c1cc2c(cn1)[nH]c1ccccc12 ... N
CCN1c2nc3c(C)cccn3c(=O)c2CC2(C(=O)N(C)C(=O)N(C)C2=O)C1C (stereo not drawn) ... Y
CCOc1cccc(N2C(=O)CC(=O)NC2=O)c1 ... N
C=CCn1c(O)c(C(C)=NCc2cccnc2)c(=O)[nH]c1=O ... Y
O=c1[nH]c2ccccc2n1C1CCN(CCCC(c2ccc(F)cc2)c2ccc(F)cc2)CC1 ... Y
Cc1nc2ccccc2c(=O)n1-c1ccc(F)cc1 ... Y
COC(=O)c1ccccc1-n1c(C)nc2ccccc2c1=O ... N
C[N+]1(C)[C@@H]2CC(OC(=O)[C@H](CO)c3ccccc3)C[C@H]1[C@@H]1O[C@@H]12 (stereo partly drawn) ... Y
CCCC(C)C1C(C#N)=C(N)Oc2c1c(=O)oc1ccccc21 (stereo not drawn) ... Y
